Entries annotated with measured melting point
attribute_measured: melting point

>>> print(df.to_string())
                                    compound    measurement
 0  C[C@H](NS(=O)(=O)Nc1ccc(-c2c(C#N)c3ccc(Oc4nccnc4C#N)cc3n2C2CCC2)cc1)C1CC1  209 to 212 °C
 1  CC(C)NC(=O)Nc1ccc(-c2c(C#N)c3cc(Oc4ncccn4)ccc3n2C2CCC2)cc1  140 to 145 °C
 2  N#Cc1c(-c2ccc(Nc3nc(C(F)(F)F)cs3)cc2)n(C2CCC2)c2cc(OCCF)ccc12  116 to 118 °C
 3  CCCS(=O)(=O)Nc1ccc(-c2c(C#N)c3ccc(Oc4nccnc4C#N)cc3n2CC2CC2)cc1  178 to 180 °C
 4  Cc1cccn(-c2ccc3c(C#N)c(-c4ccc(NC(=O)O[C@H](C)C5CC5)cc4)n(C4CCC4)c3c2)c1=O  280 to 281 °C
 5  CCOc1ccc2c(C#N)c(-c3ccc(NC(=O)NCCCOC)cc3)n(C3CCC3)c2c1  152 to 155 °C
 6  Cc1nnc(SCCOc2ccc3c(C#N)c(-c4ccc(NC(=O)OC(C)C)cc4)n(C4CCC4)c3c2)s1  150 to 151 °C
 7  N#Cc1c(-c2ccc(NC(=O)OC3CCC3)cc2)n(C2CCC2)c2ccc(OCCn3cncn3)cc12  190 to 192 °C
 8  COCCOc1ccc2c(C#N)c(-c3ccc(NC(=O)OC(C)(C)C(F)(F)F)cc3)n(C(C)C)c2c1  188 to 191 °C
 9  Cc1cccn(-c2ccc3c(C#N)c(-c4ccc(NC(=O)O[C@H](C)C(F)(F)F)cc4)n(C4CCC4)c3c2)c1=O  265 to 266 °C
10  CC(C)OC(=O)Nc1ccc(-c2c(C#N)c3ccc(Oc4ncccn4)cc3n2C2CCC2)cc1OC(F)(F)F    94 to 96 °C
11  CCOc1ccc2c(c1)c(C#N)c(-c1ccc(N(S(=O)(=O)CC)S(=O)(=O)CC)cc1)n2CC1CC1  180 to 182 °C
12  C[C@@H](OC(=O)Nc1ccc(-c2c(C#N)c3ccc(OCCn4ccnc4)cc3n2C2CC2)cc1)c1ccc(F)cc1  225 to 230 °C
13  CCCS(=O)(=O)Nc1ccc(-c2c(C#N)c3ccc(Oc4nc(C)ccc4C#N)cc3n2C2CCC2)cc1  219 to 221 °C
14  N#Cc1c(-c2ccc(N3CCCS3(=O)=O)cc2)n(C2CCC2)c2cc(N3CCOCC3)ccc12  290 to 292 °C
15  C[C@H](NS(=O)(=O)Nc1ccc(-c2c(C#N)c3ccc(Oc4ncccc4C#N)cc3n2C2CCC2)cc1)C1CC1  130 °C (dec.)
16  CC(OC(=O)Nc1ccc(-c2c(C#N)c3ccc(OC4CCOCC4)cc3n2C2CC2)cc1)C(F)(F)F (centres unmarked)  207 to 209 °C
17  COCCOc1ccc2c(C#N)c(-c3ccc(C(=O)NC4CCC4)cc3)n(C3CCC3)c2c1  199 to 200 °C
18  C[C@H](NS(=O)(=O)Nc1ccc(-c2c(C#N)c3ccc(N4CCOCC4)cc3n2C2CCC2)cc1)C1CC1  198 to 199 °C
19  CC(C)NC(=O)Oc1ccc(-c2c(C#N)c3ccc(OC4CCOCC4)cc3n2CC2CC2)cc1  161 to 163 °C
20  CCCS(=O)(=O)Nc1ccc(-c2c(C#N)c3ccc(Oc4nccc(C)n4)cc3n2C2CC2)cc1  239 to 241 °C
21  CCCS(=O)(=O)Nc1ccc(-c2c(C#N)c3cc(C(=O)N(C)C)ccc3n2C2CCC2)cc1  236 to 237 °C
22  COCCOc1ccc2c(C#N)c(-c3ccc(NC(=O)O[C@H](C)c4ccc(F)cc4)cc3)n(C(C)C)c2c1  113 to 116 °C
